# System: CCRF-CEM leukemia
# protocol notes: NCI tumour cell line growth inhibition, 48 h
TGI values for the compounds below.

[
  {
    "compound": "Cc1nc(Nc2ccc(Cl)cc2)sc1C(=O)Nc1cccc2c(=O)[nH][nH]c(=O)c12",
    "TGI": "79.5 µM"
  },
  {
    "compound": "O=C(O)C1CC2C=CCC(C2)C1 (stereo unspecified)",
    "TGI": "> 100 µM"
  },
  {
    "compound": "CSC(=S)NCc1cn(C)c2ccccc12",
    "TGI": "> 100 µM"
  },
  {
    "compound": "C=C(c1ccccc1)c1cc2c(=O)[nH]ccc2n1C",
    "TGI": "> 100 µM"
  },
  {
    "compound": "OC[C@H]1N[C@H](CO)[C@@H](O)[C@H]1O",
    "TGI": "> 100 µM"
  },
  {
    "compound": "CN(Cc1cnc2nc(N)nc(N)c2n1)c1c(Cl)cc(C(=O)NC(CCC(=O)O)C(=O)O)cc1Cl (stereo unspecified)",
    "TGI": "> 100 µM"
  }
]

* * *

# System: UO-31 renal
# protocol notes: NCI tumour cell line growth inhibition, 48 h
Would you mind labelling by TGI? At or over 10 µM is criterion met, under is criterion not met.

[
  {
    "molecule": "CC12CC(c3ccccc3O1)C(C(=O)Nc1nccs1)C(=O)N2 (stereo not given)",
    "class assignment": "criterion met"
  },
  {
    "molecule": "O=C(NCCCN1CCN(CCCNC(=O)Nc2cc(Cl)ccc2Cl)CC1)Nc1cc(Cl)ccc1Cl",
    "class assignment": "criterion met"
  },
  {
    "molecule": "COC1OC(C)/C(=N/O)C2OC(C)(C)OC12 (stereo not given)",
    "class assignment": "criterion met"
  },
  {
    "molecule": "CN(C)CCN=c1nc2c(c(N)n1-c1ccccc1)c(=S)n(-c1ccccc1)c(=S)n2-c1ccccc1",
    "class assignment": "criterion not met"
  },
  {
    "molecule": "CC(=O)OC1C2CCC3CC2C2(SCCS2)C31 (stereo not given)",
    "class assignment": "criterion met"
  },
  {
    "molecule": "O=C1c2ccccc2-c2c1c1ccccc1c(=O)n2CCNCCNCCNCCNCCn1c2c(c3ccccc3c1=O)C(=O)c1ccccc1-2",
    "class assignment": "criterion not met"
  },
  {
    "molecule": "CC(=O)N1CCOC12N=NC(C)(C)O2 (stereo not given)",
    "class assignment": "criterion met"
  },
  {
    "molecule": "CCOC(=O)c1sc(NC(=O)COc2ccc(/C=C3\\CCc4cc(OC)ccc4C3=O)cc2)nc1C",
    "class assignment": "criterion not met"
  },
  {
    "molecule": "Cn1cc(-c2csc(-c3ccc(Cl)cc3)n2)c2cccnc21",
    "class assignment": "criterion met"
  },
  {
    "molecule": "C[C@]12CC[C@H]3[C@@H](CC=C4C[C@@H](O)CC[C@@]43C)[C@@H]1C/C(=C\\c1ccc([N+](=O)[O-])cc1)[C@@H]2O",
    "class assignment": "criterion met"
  }
]

* * *

# System: IGROV1 ovarian
# protocol notes: NCI tumour cell line growth inhibition, 48 h

[
  {
    "compound": "C[C@]12CC[C@H](OC(=O)Nc3ccccc3)CC1=CC[C@@H]1C2CC[C@]2(C)/C(=N/OC(=O)Nc3ccccc3)CCC12 (stereo not given in full)",
    "TGI": "> 100 µM"
  },
  {
    "compound": "CC(NC1CCCC[C@@H]1O)c1ccccc1 (stereo not given in full)",
    "TGI": "> 100 µM"
  },
  {
    "compound": "COC(=O)N[C@@H](C)CNc1nccc(-c2cn(C(C)C)nc2-c2cc(Cl)cc(NS(C)(=O)=O)c2F)n1",
    "TGI": "> 100 µM"
  },
  {
    "compound": "COc1cc(/C=C2\\N=C(c3ccccc3)N(c3cc4cc(Sc5ccccc5)ccc4[nH]3)C2=O)ccc1O",
    "TGI": "> 50 µM"
  },
  {
    "compound": "C=C1C(=O)OC2C[C@@]3(C)CCCC(=C)C3CC12 (stereo not given in full)",
    "TGI": "33.3 µM"
  }
]

* * *

TGI values for the compounds below.
# Tested on: DU-145 prostate
# protocol notes: NCI tumour cell line growth inhibition, 48 h

[
  {
    "compound": "O=C(O)C(Cc1ccccc1)N1C(=O)/C(=C/C(Cl)=C/c2ccc([N+](=O)[O-])cc2)SC1=S (configuration not stated)",
    "TGI": "4.56 µM"
  },
  {
    "compound": "COc1ccc(C(=O)Cn2c(C(=O)c3ccc(Cl)cc3)nc(-c3ccccc3)c2-c2ccccc2)cc1",
    "TGI": "> 100 µM"
  },
  {
    "compound": "OC[C@H]1N[C@H](CO)[C@@H](O)[C@H]1O",
    "TGI": "> 100 µM"
  },
  {
    "compound": "COc1ccc2c(CN3CCCC[C@H]3O)cc3cc4c(cc3c2c1)OCO4",
    "TGI": "7.24 µM"
  },
  {
    "compound": "C[C@@H]1C[C@@H]2OC(=O)[C@]3(C)[C@H]2[C@@H](OC3(C)O)[C@]2(C)C(=O)C=C[C@@H]12 (some centres not stated)",
    "TGI": "> 100 µM"
  },
  {
    "compound": "Cc1cccc(NC(=S)Nc2cccc(Cl)c2)n1",
    "TGI": "> 100 µM"
  },
  {
    "compound": "C/C(=N/NC(N)=S)C(CN1CCOCC1)C(C1=C(O)c2ccccc2OC1)c1ccccc1 (configuration not stated)",
    "TGI": "> 100 µM"
  },
  {
    "compound": "Clc1cc(Cl)nc(Nc2ccc3c(c2)CCC3)n1",
    "TGI": "> 100 µM"
  },
  {
    "compound": "O=C1C=C(NCCc2ccccc2)c2ccccc2C1=O",
    "TGI": "3.13 µM"
  },
  {
    "compound": "C=C(CN1CCc2ccccc2C1)c1ccc(CCCC(=O)Nc2ccccc2N)cc1",
    "TGI": "30.4 µM"
  },
  {
    "compound": "NC(=S)c1cccc(C2Nc3ccccc3O2)c1 (configuration not stated)",
    "TGI": "> 100 µM"
  },
  {
    "compound": "Cn1cc(-c2csc(-c3ccc(Cl)cc3)n2)c2cccnc21",
    "TGI": "28.9 µM"
  },
  {
    "compound": "COc1ccc2c(c1)[n+](=O)c(/C=C/C(=O)c1cc(OC)c(OC)c(OC)c1)c(C)n2[O-]",
    "TGI": "13.4 µM"
  },
  {
    "compound": "OC(Cc1cccc2ccccc12)CN1CCC(c2ccccc2)CC1 (configuration not stated)",
    "TGI": "31.9 µM"
  },
  {
    "compound": "CCNc1ccc2c(c1)C(=O)N(OS(C)(=O)=O)C2=O",
    "TGI": "> 100 µM"
  },
  {
    "compound": "COC(=O)CCCc1nc2ccccc2nc1N=Nc1ccccc1",
    "TGI": "> 100 µM"
  },
  {
    "compound": "COC(=O)[C@@H]1C=CCN1S(=O)(=O)c1ccc(C)cc1",
    "TGI": "> 100 µM"
  },
  {
    "compound": "Fc1ccc(-c2ncn(C3CCNCC3)c2-c2ccnc(Oc3ccc(Cl)cc3)n2)cc1",
    "TGI": "> 15.8 µM"
  },
  {
    "compound": "C=CCCCN(C(=O)c1ccccc1)c1ccc(C(=O)OC)o1",
    "TGI": "> 100 µM"
  },
  {
    "compound": "CC(Cl)(CCC(Cl)C(C)(C)Cl)C(=O)CBr (configuration not stated)",
    "TGI": "33.7 µM"
  },
  {
    "compound": "CCC1OC2(C)CC(C#N)(C#N)C1(C#N)C(=N)O2 (configuration not stated)",
    "TGI": "> 100 µM"
  },
  {
    "compound": "O=C1OC2(CCCCC2)C(Oc2ccc(Cl)cc2)=C1F",
    "TGI": "> 100 µM"
  }
]

* * *

# Test system: SK-MEL-28 melanoma
# protocol notes: NCI tumour cell line growth inhibition, 48 h; in the data active means GI50 below about 0.43 µM; inactive means the rest
Outcome codes: active, inactive

[
  {
    "compound": "CSC(=S)NCc1cn(C)c2ccccc12",
    "tgt": "SK-MEL-28 melanoma",
    "class assignment": "inactive"
  },
  {
    "compound": "CC(=O)c1nc(-c2ccc(C[C@@H](CNC(=O)CN(C)C)NC(=O)c3ccc(OC(C)C)c(Cl)c3)cc2)cn1C",
    "tgt": "SK-MEL-28 melanoma",
    "class assignment": "inactive"
  },
  {
    "compound": "Cc1cc(C)c(-c2c(O)c(Br)c(-c3c(C)cc(C)c(Br)c3C)c(O)c2Br)c(C)c1Br",
    "tgt": "SK-MEL-28 melanoma",
    "class assignment": "inactive"
  },
  {
    "compound": "CCCCC[C@H]1C/C=C2/C(=O)C=C[C@@H]2C/C=C\\CCCC(=O)O1",
    "tgt": "SK-MEL-28 melanoma",
    "class assignment": "active"
  },
  {
    "compound": "CCOC(=O)c1sc(NC(=O)COc2ccc(/C=C3\\CCc4cc(OC)ccc4C3=O)cc2)nc1C",
    "tgt": "SK-MEL-28 melanoma",
    "class assignment": "inactive"
  },
  {
    "compound": "CN(C)CCN=c1nc2c(c(N)n1-c1ccccc1)c(=S)n(-c1ccccc1)c(=S)n2-c1ccccc1",
    "tgt": "SK-MEL-28 melanoma",
    "class assignment": "inactive"
  },
  {
    "compound": "CCN(CC)CC[n+]1ccc2c(C)c3[nH]c4ccccc4c3c(C)c2c1",
    "tgt": "SK-MEL-28 melanoma",
    "class assignment": "inactive"
  },
  {
    "compound": "CCCCS(=O)(=O)c1cc(Nc2ccc(O)c3c2C(=O)c2ccccc2C3=O)ccc1C",
    "tgt": "SK-MEL-28 melanoma",
    "class assignment": "inactive"
  },
  {
    "compound": "COc1c(OC2OC(C)C(O)C(O)C2O)c(OC)c2oc(-c3ccc(O)cc3)cc(=O)c2c1O (centres undefined)",
    "tgt": "SK-MEL-28 melanoma",
    "class assignment": "inactive"
  },
  {
    "compound": "O=C(NCc1cn(Cc2cccc(Oc3ccccc3)c2)nn1)c1cccnc1NCc1ccc(Cl)cc1",
    "tgt": "SK-MEL-28 melanoma",
    "class assignment": "inactive"
  },
  {
    "compound": "CCOC(=O)/C=C/c1ccc([N+](=O)[O-])o1",
    "tgt": "SK-MEL-28 melanoma",
    "class assignment": "inactive"
  },
  {
    "compound": "COc1ccc(C(=O)Cn2c(C(=O)c3ccc(Cl)cc3)nc(-c3ccccc3)c2-c2ccccc2)cc1",
    "tgt": "SK-MEL-28 melanoma",
    "class assignment": "inactive"
  },
  {
    "compound": "C[C@]12CCC3c4ccc(O)cc4CCC3C1CC[C@@H]2NC(=O)/C=C/c1ccc(O)c(O)c1 (some centres undefined)",
    "tgt": "SK-MEL-28 melanoma",
    "class assignment": "inactive"
  },
  {
    "compound": "N.N.N.N.O=S([O-])[O-].[Co+3].[N-]=[N+]=[N-]",
    "tgt": "SK-MEL-28 melanoma",
    "class assignment": "inactive"
  }
]
